Just for reference, PubChem BioAssay (NCATS) is where these values come from.

- ASSAY DETAILS: qHTS of pediatric cancer cell lines to identify multiple opportunities for drug repurposing: Primary screen for LAN-5 cells (AID 1347100)
- REPORTED CONDITIONS: LAN-5 neuroblastoma viability, CellTiter-Glo luminescence, 48 h; series mostly up to 46 µM
Results filed as inconclusive are left out. Calls of active or inactive are those of the source. The call rests on the fitted dose curve; in most records, active means well fitted cell-killing curve with a large enough effect; inconclusive means small, poorly fitted or top-dose-only effect; inactive means no such curve, though single readings can be large or run the other way.
Assign a class; possible classes are active, inactive

For `C[C@]12CC[C@@H]3c4ccc(O)cc4CC[C@H]3[C@H]1C[C@@H](O)[C@H]2O` , which call appears in the assay record? inactive

Status in this test for `CC1(C)Cc2c(sc(NC(=S)NC(=O)c3ccccc3)c2C(=O)O)CO1` ? inactive

Dear colleague, could you share the recorded outcome for `NC[C@@H]1O[C@@H](O[C@H]2[C@@H](O)[C@H](O[C@@H]3[C@@H](O)[C@@H](N)C[C@H](N)[C@H]3O[C@H]3O[C@H](CN)[C@@H](O)[C@@H](O)[C@H]3N)O[C@H]2CO)[C@H](N)[C@@H](O)[C@@H]1O` when you have a moment? inactive

Can you look up the reported call for `c1ccc2c(Cc3c[nH]c4ccccc34)c[nH]c2c1` for me? active

Assay result, entry COc1ccc(-c2oc3c(CC=C(C)C)c(OC4O[C@H](CO)[C@@H](O)[C@H](O)[C@@H]4O)cc(O)c3c(=O)c2OC2O[C@@H](C)[C@H](O)[C@@H](O)[C@@H]2O)cc1 (stereo partly drawn) — outcome? active

Assay outcome for `CC(C)(Cc1ccc2ccccc2c1)NC[C@@H](O)COc1cccc(Cl)c1C#N` : what was it? active

Answer briefly: the call reported for `O=C(O)c1ccccc1C(=O)Nc1ccc(-c2ccccc2)cc1` in this assay. inactive

How was `O=C(O)C=Cc1ccc(O)c(O)c1` classified in this test? active

Assay outcome for `Clc1ccc(-c2nc3sccn3c2C=NOCc2ccc(Cl)c(Cl)c2)cc1` : what was it? inactive

Per the records of this test, what outcome belongs to `O=C(O)[C@H]1O[C@H](Oc2cc3oc(-c4ccccc4)cc(=O)c3c(O)c2O)[C@H](O)[C@@H](O)[C@H]1O` ? inactive

Would you mind telling me which call this test gave `O=C(O)c1ccc(-c2cc3cccnc3c(-c3ccc4nonc4c3)n2)cc1` ? active

Write down the call the test reported for this compound. Item: `NC1=N[C@@]2(c3cc(NC(=O)c4ccc(F)cn4)ccc3F)COC[C@@H]2CS1` active

// outcome(item) with item = `COc1cc(O)c2c(c1)C(=O)c1cc(C)cc(O)c1C2=O` inactive

Check the results log: what was the call for `O=C1c2c(O)cc(O)cc2O[C@H](c2cc(O)c(O)c(O)c2)[C@H]1O` ? active
